- tgt: T1, f-Sub M (7-methoxycoumarin-4-acetyl-SEVNLDAEFRK(Dnp)-RR-NH2)
- T1 peptide: Mca-SEVNLDAEFRK(Dnp)RR-NH2
- experimentDescription: cell-based or functional assay
Where no end group is shown, it is not given here. The star is where a group is joined. Dnp = O=[N+]([O-])c1ccc(*)c([N+](=O)[O-])c1; Mca = COc1ccc2c(CC(=O)*)cc(=O)oc2c1
measuredAttribute: percent inhibition of f-Sub M cleavage by rhBACE1 (peptide 1 mM, f-Sub M 10 µM) (%)
Hi! Could you send only the number? It should be in %, unit omitted.

I have this binder here, SEFCIQIHFR-NH2 (Hydropathic complementary peptide designed from the antisense strand of Sub M, read 5'->3'; also called HC peptide c-Sub M) [c-Sub M (SEFCIQIHFR)] , and I need its recorded percent inhibition of f-Sub M cleavage by rhBACE1 (peptide 1 mM, f-Sub M 10 µM).
45

// query: SEFCIQIH-NH2 [c-Sub M ΔC2 (SEFCIQIH)]
44

What do we get for SEFCIQIHF-NH2 (also called c-SubM CΔ1) [c-Sub M ΔC1 (SEFCIQIHF)] ?
90
